Data origin: patent US9586951B2

Overview of recorded IC50 for various compounds
Measurement Target: ATM (Homo sapiens)
Construct: detecting phosphorylation of Chk2 in a human non-small cell lung cancer cell line NCI-H460 (ATCC company); host or cells: NCI-H460 human non-small cell lung cancer cells
Test Protocol: ATM inhibition test (phosphorylation of Chk2 generated by ionizing radiation, AlphaScreen SureFire)
Format: cell-based
Cond: phosphorylated Chk2 in NCI-H460 cells, ionizing radiation 8Gy, 1 hour after test compound treatment; read-out: ATM inhibitory activity

Compound	Measurement Target	IC50
Cc1cnc(C(CF)Nc2ccc3c(c2)Sc2cccc(-c4cc(N5CCOCC5)cc(=O)[nH]4)c2S3)nc1 (stereo not shown)	ATM (Homo sapiens)	< 100 nM
Cc1cccc(CN(CC(=O)O)c2ccc3c(c2)Cc2cccc(-c4cc(N5CCOCC5)cc(=O)[nH]4)c2O3)n1	ATM (Homo sapiens)	500 to 2000 nM
Cc1ccnc(C(C)Nc2ccc3c(c2)Cc2cccc(-c4cc(N5CCOCC5)cc(=O)[nH]4)c2O3)c1 (stereo not shown) [Example 2-14-19]	ATM (Homo sapiens)	100 to 500 nM
O=c1cc(N2CCOCC2)cc(-c2cccc3c2Oc2ccc(NCc4ccnc(Cl)c4)cc2C3)[nH]1	ATM (Homo sapiens)	< 100 nM

====

Measurement Target: ATM (Homo sapiens, UniProt Q13315)
Construct: detecting phosphorylation of Chk2 in a human non-small cell lung cancer cell line NCI-H460 (ATCC company); host or cells: NCI-H460 human non-small cell lung cancer cells
Sequence (Q13315 whole entry): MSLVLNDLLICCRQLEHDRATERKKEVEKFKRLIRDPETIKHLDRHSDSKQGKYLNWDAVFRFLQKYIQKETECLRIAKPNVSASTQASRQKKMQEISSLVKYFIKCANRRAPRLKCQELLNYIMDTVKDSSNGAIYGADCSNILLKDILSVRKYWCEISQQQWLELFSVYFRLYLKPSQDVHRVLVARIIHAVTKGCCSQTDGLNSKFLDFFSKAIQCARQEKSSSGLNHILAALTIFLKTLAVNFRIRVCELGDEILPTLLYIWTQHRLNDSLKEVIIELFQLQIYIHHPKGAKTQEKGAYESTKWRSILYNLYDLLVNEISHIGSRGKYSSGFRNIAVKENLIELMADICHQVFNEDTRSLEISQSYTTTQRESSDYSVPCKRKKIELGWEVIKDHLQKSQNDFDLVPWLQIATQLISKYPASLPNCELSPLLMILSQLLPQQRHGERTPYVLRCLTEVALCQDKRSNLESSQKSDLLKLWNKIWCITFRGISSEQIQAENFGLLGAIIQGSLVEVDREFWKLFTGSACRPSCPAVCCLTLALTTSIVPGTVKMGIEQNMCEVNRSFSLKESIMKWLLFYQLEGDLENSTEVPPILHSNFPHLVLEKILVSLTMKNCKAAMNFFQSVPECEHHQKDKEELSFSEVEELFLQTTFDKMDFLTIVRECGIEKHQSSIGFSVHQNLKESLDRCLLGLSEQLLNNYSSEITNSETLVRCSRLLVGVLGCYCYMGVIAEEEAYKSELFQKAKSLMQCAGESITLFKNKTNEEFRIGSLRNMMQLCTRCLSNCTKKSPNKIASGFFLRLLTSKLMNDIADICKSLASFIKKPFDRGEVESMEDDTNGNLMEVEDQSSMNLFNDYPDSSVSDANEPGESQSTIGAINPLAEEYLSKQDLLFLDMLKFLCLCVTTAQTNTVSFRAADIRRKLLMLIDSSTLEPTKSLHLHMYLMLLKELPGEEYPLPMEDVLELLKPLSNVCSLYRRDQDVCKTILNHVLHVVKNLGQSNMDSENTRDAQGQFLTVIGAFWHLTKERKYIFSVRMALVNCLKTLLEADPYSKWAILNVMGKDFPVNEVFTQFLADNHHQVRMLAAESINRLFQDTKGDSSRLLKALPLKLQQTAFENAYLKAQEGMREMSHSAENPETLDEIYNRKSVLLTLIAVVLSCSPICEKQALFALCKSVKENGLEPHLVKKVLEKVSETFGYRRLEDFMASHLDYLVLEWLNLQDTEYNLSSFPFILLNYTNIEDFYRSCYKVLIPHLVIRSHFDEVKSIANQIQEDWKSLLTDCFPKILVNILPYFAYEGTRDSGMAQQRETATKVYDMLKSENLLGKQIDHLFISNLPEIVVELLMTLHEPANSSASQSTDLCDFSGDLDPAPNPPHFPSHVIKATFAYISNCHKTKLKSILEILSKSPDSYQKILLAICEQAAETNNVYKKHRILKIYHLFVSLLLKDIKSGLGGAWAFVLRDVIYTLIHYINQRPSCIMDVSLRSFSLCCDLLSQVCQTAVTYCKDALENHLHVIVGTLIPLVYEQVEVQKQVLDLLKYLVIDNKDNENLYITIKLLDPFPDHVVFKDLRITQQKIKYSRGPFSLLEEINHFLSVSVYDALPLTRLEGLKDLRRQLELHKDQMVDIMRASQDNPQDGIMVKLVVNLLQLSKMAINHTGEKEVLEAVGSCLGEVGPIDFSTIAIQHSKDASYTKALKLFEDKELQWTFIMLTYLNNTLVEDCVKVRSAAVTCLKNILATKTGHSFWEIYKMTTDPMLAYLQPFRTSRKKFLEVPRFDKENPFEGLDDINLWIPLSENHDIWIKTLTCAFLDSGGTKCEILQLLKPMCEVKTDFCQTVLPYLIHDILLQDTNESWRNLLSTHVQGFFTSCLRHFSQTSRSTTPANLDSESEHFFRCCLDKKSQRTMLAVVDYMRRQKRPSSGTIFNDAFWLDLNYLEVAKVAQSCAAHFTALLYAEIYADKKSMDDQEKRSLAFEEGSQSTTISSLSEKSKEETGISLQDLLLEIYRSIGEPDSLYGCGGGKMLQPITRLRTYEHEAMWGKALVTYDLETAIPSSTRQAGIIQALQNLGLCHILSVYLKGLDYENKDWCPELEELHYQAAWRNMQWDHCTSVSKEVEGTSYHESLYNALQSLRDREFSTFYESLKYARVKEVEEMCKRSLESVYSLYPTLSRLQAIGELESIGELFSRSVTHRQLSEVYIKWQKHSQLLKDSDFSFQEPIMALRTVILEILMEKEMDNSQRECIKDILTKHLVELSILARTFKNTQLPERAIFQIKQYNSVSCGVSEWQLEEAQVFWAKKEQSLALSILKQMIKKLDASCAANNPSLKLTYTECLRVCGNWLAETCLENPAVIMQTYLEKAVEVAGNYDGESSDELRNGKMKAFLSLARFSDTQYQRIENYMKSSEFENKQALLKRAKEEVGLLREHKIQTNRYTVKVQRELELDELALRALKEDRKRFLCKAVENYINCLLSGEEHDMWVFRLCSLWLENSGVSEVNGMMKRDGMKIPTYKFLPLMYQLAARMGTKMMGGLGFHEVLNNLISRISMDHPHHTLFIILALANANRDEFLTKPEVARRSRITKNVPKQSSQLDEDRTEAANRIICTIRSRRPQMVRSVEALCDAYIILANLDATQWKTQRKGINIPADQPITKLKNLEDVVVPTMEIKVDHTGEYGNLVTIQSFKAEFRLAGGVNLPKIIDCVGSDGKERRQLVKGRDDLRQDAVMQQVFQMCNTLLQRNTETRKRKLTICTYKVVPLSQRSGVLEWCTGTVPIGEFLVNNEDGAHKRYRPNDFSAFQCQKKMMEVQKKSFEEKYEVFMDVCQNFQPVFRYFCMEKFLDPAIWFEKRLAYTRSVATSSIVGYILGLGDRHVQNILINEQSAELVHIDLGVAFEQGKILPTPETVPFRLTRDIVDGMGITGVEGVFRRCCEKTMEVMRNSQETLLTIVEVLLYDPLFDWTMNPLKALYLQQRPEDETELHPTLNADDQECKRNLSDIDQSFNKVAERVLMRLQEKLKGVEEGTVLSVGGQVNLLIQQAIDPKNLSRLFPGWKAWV
Test Protocol: ATM inhibition test (phosphorylation of Chk2 generated by ionizing radiation, AlphaScreen SureFire)
Format: cell-based
Cond: phosphorylated Chk2 in NCI-H460 cells, ionizing radiation 8Gy, 1 hour after test compound treatment; read-out: ATM inhibitory activity
Overview of recorded IC50 for various molecules

Molecule	IC50
Cc1cccc(C(C)Nc2ccc3c(c2)Sc2cccc(-c4cc(N5CCOCC5)cc(=O)[nH]4)c2O3)n1 (stereo not shown)	< 0.1 µM
COCCN1CCC(Nc2ccc3c(c2)Cc2cccc(-c4cc(N5CCOCC5)cc(=O)[nH]4)c2O3)CC1	0.5 to 2 µM
CNc1ccc(CNc2ccc3c(c2)Sc2cccc(-c4cc(N5CCOCC5)cc(=O)[nH]4)c2S3)cn1	0.1 to 0.5 µM
O=c1cc(N2CCOCC2)cc(-c2cccc3c2Oc2ccc(NC4CCN(Cc5cnccn5)CC4)cc2C3)[nH]1	0.5 to 2 µM
O=c1cc(N2CCOCC2)cc(-c2cccc3c2Oc2ccc(NCc4ccc(OC5CCOCC5)nc4)cc2C3)[nH]1	0.5 to 2 µM
Cc1cnc(C(C)Nc2ccc3c(c2)Cc2cccc(-c4cc(N5CCOCC5)cc(=O)[nH]4)c2O3)cn1 (single isomer, unassigned) [Example 2-14-90-2]	< 0.1 µM
CCC(CN1CCOCC1)Nc1ccc2c(c1)Sc1cccc(-c3cc(N4CCOCC4)cc(=O)[nH]3)c1S2 (stereo not shown)	< 0.1 µM

====

Measurement Target: ATM (Homo sapiens, UniProt Q13315)
Construct: detecting phosphorylation of Chk2 in a human non-small cell lung cancer cell line NCI-H460 (ATCC company); host or cells: NCI-H460 human non-small cell lung cancer cells
Test Protocol: ATM inhibition test (phosphorylation of Chk2 generated by ionizing radiation, AlphaScreen SureFire)
Assay type: cell-based
Cond: phosphorylated Chk2 in NCI-H460 cells, ionizing radiation 8Gy, 1 hour after test compound treatment; read-out: ATM inhibitory activity
Experimental: ATM inhibitory effects of a test compound were measured by detecting phosphorylation of Chk2 in a human non-small cell lung cancer cell line NCI-H460 (ATCC company). The level of phosphorylated Chk2 generated by an ionizing radiation was measured using AlphaScreen SureFire (TGR Biosciences). The cells were seeded by 40000 cells per well in 96-well CellBIND® plates (Corning International Inc.), and incubated at 37° C. overnight in 5% CO2. […]
pIC50: −log10 of the molar value.

Compound	pIC50
Cc1ccc(C(Nc2ccc3c(c2)Sc2cccc(-c4cc(N5CCOCC5)cc(=O)[nH]4)c2S3)C2CNCCO2)nc1 (single isomer, unassigned) [Example 1-55-1]	> 7.00
Cc1ccc(C(Nc2ccc3c(c2)Sc2cccc(-c4cc(N5CCOCC5)cc(=O)[nH]4)c2S3)C2CC(N(C)C)C2)nc1 (single isomer, unassigned) [Example 1-50-8]	> 7.00
O=c1cc(N2CCOCC2)cc(-c2cccc3c2Sc2ccc(NC4CCCC4N4CCOCC4)cc2S3)[nH]1 (single isomer, unassigned) [Example 1-16-1-3]	6.30 to 7.00
COc1cccc(C(CO)Nc2ccc3c(c2)Sc2cccc(-c4cc(N5CCOCC5)cc(=O)[nH]4)c2S3)n1 (stereo not drawn) [Example 1-12-132]	> 7.00
Cc1ccnc(C(C)Nc2ccc3c(c2)Cc2cccc(-c4cc(N5CCOCC5)cc(=O)[nH]4)c2O3)n1 (stereo not drawn) [Example 2-14-79]	6.30 to 7.00
O=c1cc(N2CCOCC2)cc(-c2cccc3c2Oc2ccc(NC4CCN(CCc5ccccc5)CC4)cc2S3)[nH]1 [Example 4-10]	> 7.00
Cc1ccc(C(Nc2ccc3c(c2)Sc2cccc(-c4cc(N5CCOCC5)cc(=O)[nH]4)c2S3)C2CCCCC2)nc1 (stereo not drawn) [Example 1-12-126]	5.70 to 6.30
Cc1cc(C(C)Nc2ccc3c(c2)Sc2cccc(-c4cc(N5CCOCC5)cc(=O)[nH]4)c2S3)ncn1 (stereo not drawn) [Example 1-12-75]	> 7.00
CNCC(Nc1ccc2c(c1)Sc1cccc(-c3cc(N4CCOCC4)cc(=O)[nH]3)c1S2)c1cccc(C)n1 (stereo not drawn) [Example 1-19-1]	> 7.00
O=c1cc(N2CCOCC2)cc(-c2cc(F)cc3c2Oc2ccc(NCc4cncc(Cl)c4)cc2C3)[nH]1 [Example 2-48-3]	6.30 to 7.00
CCOC(=O)CNc1ccc2c(c1)Cc1cccc(-c3cc(N4CCOCC4)cc(=O)[nH]3)c1O2 [Example 2-14-71]	6.30 to 7.00
Cc1ccc(CNc2ccc3c(c2)Cc2cccc(-c4cc(N5CCOCC5)cc(=O)[nH]4)c2O3)nc1 [Example 2-2-41]	6.30 to 7.00
O=c1cc(N2CCOCC2)cc(-c2cccc3c2Oc2ccc(NCc4cc(Cl)ccn4)cc2C3)[nH]1 [Example 2-2-64]	> 7.00
COC(C)(C)c1cncc(CNc2ccc3c(c2)Cc2cccc(-c4cc(N5CCOCC5)cc(=O)[nH]4)c2O3)c1 [Example 2-14-12]	> 7.00
CCC(C(=O)Nc1ccc2c(c1)Sc1cccc(-c3cc(N4CCOCC4)cc(=O)[nH]3)c1S2)N1CCOCC1 (stereo not drawn) [Example 1-6-2]	6.30 to 7.00
